- systemTested: UniProt:O60307
- Sequence (O60307 whole entry): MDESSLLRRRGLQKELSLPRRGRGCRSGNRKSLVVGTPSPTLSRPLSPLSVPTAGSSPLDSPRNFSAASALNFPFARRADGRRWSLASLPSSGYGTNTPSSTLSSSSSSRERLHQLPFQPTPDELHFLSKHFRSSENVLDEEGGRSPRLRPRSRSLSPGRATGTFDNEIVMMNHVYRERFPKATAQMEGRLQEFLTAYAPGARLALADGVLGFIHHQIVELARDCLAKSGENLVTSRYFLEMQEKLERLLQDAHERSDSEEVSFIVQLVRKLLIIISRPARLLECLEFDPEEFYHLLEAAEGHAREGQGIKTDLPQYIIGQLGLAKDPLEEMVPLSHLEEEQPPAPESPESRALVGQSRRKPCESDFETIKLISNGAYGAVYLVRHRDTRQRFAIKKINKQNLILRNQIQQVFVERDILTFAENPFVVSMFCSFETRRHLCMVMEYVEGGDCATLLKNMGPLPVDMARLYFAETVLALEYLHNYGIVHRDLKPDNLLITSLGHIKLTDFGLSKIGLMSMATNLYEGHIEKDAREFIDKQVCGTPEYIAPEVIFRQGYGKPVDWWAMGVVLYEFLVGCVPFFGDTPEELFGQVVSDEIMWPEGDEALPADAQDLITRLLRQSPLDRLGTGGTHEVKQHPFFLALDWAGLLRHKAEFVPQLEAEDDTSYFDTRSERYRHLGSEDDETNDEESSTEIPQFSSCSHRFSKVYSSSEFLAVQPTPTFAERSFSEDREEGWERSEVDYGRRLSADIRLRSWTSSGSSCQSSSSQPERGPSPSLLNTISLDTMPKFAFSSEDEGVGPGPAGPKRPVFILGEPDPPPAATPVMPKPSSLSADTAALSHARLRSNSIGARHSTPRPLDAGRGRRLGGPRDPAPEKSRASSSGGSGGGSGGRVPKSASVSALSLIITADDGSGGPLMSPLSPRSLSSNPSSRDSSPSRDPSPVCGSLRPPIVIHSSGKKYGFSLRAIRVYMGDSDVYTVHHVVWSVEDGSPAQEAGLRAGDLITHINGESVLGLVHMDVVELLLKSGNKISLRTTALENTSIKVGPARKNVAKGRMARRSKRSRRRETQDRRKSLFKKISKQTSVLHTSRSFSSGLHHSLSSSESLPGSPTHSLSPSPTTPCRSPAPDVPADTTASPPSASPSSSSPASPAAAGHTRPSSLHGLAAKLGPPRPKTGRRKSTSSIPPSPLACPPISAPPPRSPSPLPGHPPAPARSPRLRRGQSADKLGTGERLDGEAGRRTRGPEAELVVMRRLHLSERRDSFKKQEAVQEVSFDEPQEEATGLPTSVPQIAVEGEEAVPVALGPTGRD
- methodNotes: KINATIV assay
- Assay type: cell-based
- conditionContext: 1 μM, 90 minutes, BCWM.1 cells
readout: % change of MS signal compared to control sample

Below are worked cases with known answers.
>  <compound>
C=CC(=O)N1CCC(Cn2ccc(Nc3ncc(C(=O)Nc4c(C)cccc4Cl)s3)n2)C1 (stereo not shown)

>  <systemTested>
UniProt:O60307

>  <resultValue>
3.8%

$$$$
>  <compound>
C=CC(=O)N1CCC(CNc2nccc(Nc3ncc(C(=O)Nc4c(C)cccc4C)s3)n2)C1 (racemic)

>  <systemTested>
UniProt:O60307

>  <resultValue>
−8.3%

$$$$
>  <compound>
C=CC(=O)N1CCCCC(Nc2nccc(Nc3ncc(C(=O)Nc4c(C)cccc4C)s3)n2)C1 (stereo not shown)

>  <systemTested>
UniProt:O60307

>  <resultValue>
−1.6%

$$$$

Please give measured % change of MS signal compared to control sample of the following entry: C=CC(=O)N1CC[C@@H](Nc2nccc(Nc3ncc(C(=O)Nc4c(C)cccc4C)s3)n2)C1
2.0%
